Cited source: patent US20260070921A1

Tested on: HEK293 cells
Test: Fluorescence imaging of self-assemblies in living cells (DCVJ)
Assay type: cell-based
Conditions: 100 μM, DCVJ 1.0 μM, 8 h
Experimental: HEK293 cells were incubated with compound 1, 4, 5, or 6 (25 or 100 μM) in the presence of 1.0 μM DCVJ in DMEM (10% FBS). Fluorescence and bright-field images were taken with a CV1000 confocal microscope equipped with a 40× objective lens (Yokogawa Electric Corporation). The ability of compound 1 and its derivatives, compounds 4 to 6, to form assemblies was also monitored in living cells. […] Fluorescence and bright-field images were taken with a CV1000 confocal microscope. […]
quantityMeasured: Size of assemblies/particles in living-cell imaging (µm)

Cc1ccc2c(c1)sc1c(=O)nc3nc(Nc4ccc(S(N)(=O)=O)cc4)ccn3c12	5

---

test system: HEK293 cells; assay: Tunicamycin assay (cell viability under ER stress, WST-8); format: cell-based; design: key: “−” indicates no activity; “+” indicates weak activity; “++” indicates strong activity; settings: compound 25 μM 12 to 18 h, then tunicamycin 5 μg/mL 48 h
quantityMeasured: Efficacy 25 μM (ER stress inhibition activity)

CCOc1ccc2c(c1)sc1c(=O)nc3nc(Nc4ccc(S(N)(=O)=O)cc4)ccn3c12	−
NS(=O)(=O)c1ccc(Nc2ccn3c(n2)nc(=O)c2sc4cc([N+](=O)[O-])ccc4c23)cc1	++
COc1ccc2c(c1)sc1c(=O)nc3nc(Nc4ccc(S(=O)(=O)NC(=N)N)cc4)ccn3c12	++
CCCCOc1ccc2c(c1)sc1c(=O)nc3nc(Nc4ccc(S(=O)(=O)NC(=N)N)cc4)ccn3c12	+
NS(=O)(=O)c1ccc(Nc2ccn3c(n2)nc(=O)c2sc4cc(F)c(F)cc4c23)cc1	++
NS(=O)(=O)c1ccc(Nc2ccn3c(n2)nc(=O)c2sc4cc(Br)ccc4c23)cc1	+
NS(=O)(=O)c1ccc(Nc2ccn3c(n2)nc(=O)c2sc4cc5c(cc4c23)OCO5)cc1	−
CCCOc1ccc2c(c1)sc1c(=O)nc3nc(Nc4ccc(S(N)(=O)=O)cc4)ccn3c12	−
CCCCOc1ccc2c(c1)sc1c(=O)nc3nc(Nc4ccc(S(N)(=O)=O)cc4)ccn3c12	−
CCCOc1ccc2c(c1)sc1c(=O)nc3nc(Nc4ccc(S(=O)(=O)NC(=N)N)cc4)ccn3c12	++
CCCCCCOc1ccc2c(c1)sc1c(=O)nc3nc(Nc4ccc(S(N)(=O)=O)cc4)ccn3c12	−
COc1ccc2c(c1)sc1c(=O)nc3nc(Nc4ccc(S(N)(=O)=O)cc4)ccn3c12	++
NS(=O)(=O)c1ccc(Nc2ccn3c(n2)nc(=O)c2sc4cc(Cl)ccc4c23)cc1	+
COc1cc2sc3c(=O)nc4nc(Nc5ccc(S(N)(=O)=O)cc5)ccn4c3c2cc1OC	−
NS(=O)(=O)c1ccc(Nc2ccn3c(n2)nc(=O)c2sc4cc(OCc5ccccc5)ccc4c23)cc1	−

---

tested on: HEK293 cells; assay: Tunicamycin assay (cell viability under ER stress, WST-8); assay type: cell-based; details: tunicamycin 5.0 μg/mL 48 h; read-out: EC50 (dose-response curve, Hill equation)
pEC50: −log10 of the molar value.
quantityMeasured: pEC50

O=C(O)CCCc1ccccc1 [PBA, reference compound]	3.32

---

system: HEK293 cells; assay: Tunicamycin assay (cell viability under ER stress, WST-8); format: cell-based; design: key: “−” indicates no activity; “+” indicates weak activity; “++” indicates strong activity; settings: compound 100 μM 12 to 18 h, then tunicamycin 5 μg/mL 48 h
quantityMeasured: Efficacy 100 μM (ER stress inhibition activity)

COc1cc2sc3c(=O)nc4nc(Nc5ccc(S(N)(=O)=O)cc5)ccn4c3c2cc1OC	++
CCCCOc1ccc2c(c1)sc1c(=O)nc3nc(Nc4ccc(S(=O)(=O)NC(=N)N)cc4)ccn3c12	++
NS(=O)(=O)c1ccc(Nc2ccn3c(n2)nc(=O)c2sc4cc(OCc5ccccc5)ccc4c23)cc1	−
NS(=O)(=O)c1ccc(Nc2ccn3c(n2)nc(=O)c2sc4cc(Cl)ccc4c23)cc1	++
NS(=O)(=O)c1ccc(Nc2ccn3c(n2)nc(=O)c2sc4cc5c(cc4c23)OCO5)cc1	−
COc1ccc2c(c1)sc1c(=O)nc3nc(Nc4ccc(S(N)(=O)=O)cc4)ccn3c12	++
CCCOc1ccc2c(c1)sc1c(=O)nc3nc(Nc4ccc(S(=O)(=O)NC(=N)N)cc4)ccn3c12	+
CCCCCCOc1ccc2c(c1)sc1c(=O)nc3nc(Nc4ccc(S(N)(=O)=O)cc4)ccn3c12	+
CCCOc1ccc2c(c1)sc1c(=O)nc3nc(Nc4ccc(S(N)(=O)=O)cc4)ccn3c12	−
NS(=O)(=O)c1ccc(Nc2ccn3c(n2)nc(=O)c2sc4cc([N+](=O)[O-])ccc4c23)cc1	+
NS(=O)(=O)c1ccc(Nc2ccn3c(n2)nc(=O)c2sc4cc(Br)ccc4c23)cc1	++
COc1ccc2c(c1)sc1c(=O)nc3nc(Nc4ccc(S(=O)(=O)NC(=N)N)cc4)ccn3c12	++
NS(=O)(=O)c1ccc(Nc2ccn3c(n2)nc(=O)c2sc4cc(F)c(F)cc4c23)cc1	++
N=C(N)NS(=O)(=O)c1ccc(Nc2ccn3c(n2)nc(=O)c2sc4cc(OCc5ccccc5)ccc4c23)cc1	++
CCOc1ccc2c(c1)sc1c(=O)nc3nc(Nc4ccc(S(N)(=O)=O)cc4)ccn3c12	−
CCCCOc1ccc2c(c1)sc1c(=O)nc3nc(Nc4ccc(S(N)(=O)=O)cc4)ccn3c12	−
N=C(N)NS(=O)(=O)c1ccc(Nc2ccn3c(n2)nc(=O)c2sc4cc([N+](=O)[O-])ccc4c23)cc1	+
